Source listed as PubChem BioAssay.

Experiment: Pseudomonas biofilm growth suppression – PAO1 strain, BacTiter-Glo luminescence, LB-PBS, primary screen (AID 1144)
Settings: P. aeruginosa PAO1 biofilm, 12 h, higher = more signal
Values of z-score greater than or equal to -0.2 map to yes; values below map to no.

Assess whether reported z-score for CC(C)[Si](C#CCCCC#N)(O[C@H](c1ccccc1)c1cn(Cc2ccccc2)nn1)C(C)C sits at -0.2 or higher.
no

Assess whether reported z-score for CCOC(=O)C1=C[C@@H](C(C)(C)C)N(S(=O)(=O)c2ccc(C)cc2)[C@H]1c1cccc2ccccc12 sits at -0.2 or higher.
yes

Assess whether reported z-score for C[N+](C)(C)CCCC[C@@H]1NC(=O)[C@@H]2C[C@H](C(=O)NCCCCCCN)[C@H](c3cccc(OCCO)c3)N2C1=O sits at -0.2 or higher.
yes

Assess whether reported z-score for CC(C)N1C(=O)C[C@@](C(=O)NC2CC2)(c2ccc([N+](=O)[O-])cc2)[C@H]1c1ccc(CO)cc1 sits at -0.2 or higher.
yes

* * *

Assay: optical density shifts of acrAB sulA E. coli – strain DRC41, OD650, 48 h, E. coli filamentation inducer project, primary screen (AID 1152);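 further: E. coli MC1000 strain DRC41 lacking acrAB efflux pump and sulA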
Conditions: higher = more signal, called active from +8 up or from −8 down
Activity calls are given as the source filed them.
reported_endpoint: z-score

| smiles_structure | z-score |
| --- | --- |
| CO[C@H]1O[C@H](CO)[C@@H](OC(=O)Nc2ccccc2)[C@H](OC(=O)c2cc3ccccc3[nH]2)[C@H]1OC(=O)c1cc2ccccc2[nH]1 | 0.541 (inactive) |
| COCCOC(=O)N1C(=O)[C@@]2(c3cc(C#CC4(O)CCCCCC4)ccc31)[C@H](C(=O)N1CCc3cc(OC)c(OC)cc3C1)[C@H]1C(=O)O[C@H](c3ccccc3)[C@H](c3ccccc3)N1[C@@H]2c1ccc(OCCO)cc1 | -0.073 (inactive) |
| COCCOC(=O)N1C(=O)[C@@]2(c3cc(C#CCCO)ccc31)[C@H](C(=O)Nc1nc3ccccc3s1)[C@H]1C(=O)O[C@H](c3ccccc3)[C@H](c3ccccc3)N1[C@@H]2c1ccc(O)cc1 | 0.0106 (inactive) |

Moving on to another compound below.
Give a short answer stating reported z-score for CN(C)C(=O)[C@]1(Cc2ccccc2CN=[N+]=[N-])N=C(c2ccc(OCCCO)cc2)O[C@@H]1c1ccccc1 .
-0.532 (inactive)

* * *

Experiment: probe aCHRDL2 binding to arrayed compounds – biochemical, biotinylated probe, 635/667 nm fluorescence, primary screen (AID 1100)
Settings: small-molecule microarray, higher = more signal
Values of composite z-score greater than or equal to 0.1 map to Yes; values below map to No.

| compound | discrete_label |
| --- | --- |
| COCCOC(=O)N1C(=O)[C@@]2(c3cc(C#CCC(C(=O)OC)C(=O)OC)ccc31)[C@H](c1ccc(OCCO)cc1)N1[C@H](c3ccccc3)[C@H](c3ccccc3)OC(=O)[C@H]1[C@@H]2C(=O)N1CCc2cc(OC)c(OC)cc2C1 | No |
| CCOC(=O)C[C@H]1[C@H](OC(=O)c2ccccc2-c2ccccc2)[C@@H](NC(=O)c2ccc3ccccc3c2)c2cc(OCCCO)ccc2N1C(=O)c1ccccc1 | No |
| NCCCCCNC(=O)[C@@H]1C[C@@H]2C(=O)N[C@@H](CCCCN)C(=O)N2[C@@H]1c1ccc(O)cc1 | Yes |
| CC(CO)N1C(=O)[C@@H]2[C@H]3C(=O)OCC=C[C@H]3OC23C=CCN(Cn2nnc4ccccc42)C(=O)[C@@H]13 (stereo partly drawn) | Yes |
| COC(=O)[C@@]1(Cc2ccc(F)cc2)[C@H]2c3cc(C(=O)N(C)C)n(CCc4ccc(OC)c(Br)c4)c3C[C@H]2CN1C(=O)c1ccccc1 | Yes |

Assess whether reported composite z-score for COCCCNC(=O)[C@@H]1c2ccccc2C(=O)N(C(C)C)[C@H]1c1ccc(CO)cc1 sits at 0.1 or higher.
Yes

Assess whether reported composite z-score for COC(=O)[C@@]1(Cc2ccc(OC)cc2)[C@H]2c3cc(C(=O)N4CCCC4)n(CCc4c[nH]c5ccc(OC)cc45)c3C[C@H]2CN1C(=O)c1ccccc1 sits at 0.1 or higher.
Yes

* * *

Experiment: binders of probe aHhip on microarray, primary screen, stem cell growth factor project, biochemical, small-molecule microarray, fluorescence 635/667 (AID 1087);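 further: score merges spot fluorescence at 667nm with spot signal to noise ratio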
Conditions: higher = more signal
reported_endpoint: composite z-score

| compound | composite z-score |
| --- | --- |
| Cc1ccc(S[C@]2(C(=O)NCC(F)(F)F)CC(=O)N(Cc3cc(C(F)(F)F)cc(C(F)(F)F)c3)[C@@H]2c2ccc(CO)cc2)cc1 | -0.0994 |
| CC1CC/C=C\[C@H]2OC34C=CCN(C(C)C)C(=O)[C@H]3N(CCO)C(=O)[C@@H]4C2C(=O)O1 (stereo partly drawn) | -0.134 |

Moving on to another compound below.
Give a short answer stating reported composite z-score for CCOC(=O)C[C@H]1[C@H](OC(=O)c2cc3ccccc3oc2=O)[C@@H](NC(=O)c2ccccc2)c2cc(OCCCO)ccc2N1C(=O)c1ccccc1 .
-0.199

* * *

Test: binders from COS7 lysate, DM2A8 probe, primary screen, torsin A project, cell lysate, small-molecule microarray, fluorescence 635/667 (AID 1065)
Conditions: higher = more signal, COS7 lysate expressing mutant human TOR1A
reported_endpoint: composite z-score
Numbers only.

Below, each entry is followed by its recorded composite z-score result.
| molecule | composite z-score |
| --- | --- |
| CCOC(=O)C[C@H]1[C@H](OC(=O)c2ccc(C(=O)c3ccccc3)cc2)[C@@H](NC(=O)C2CCCCC2)c2cc(OCCCO)ccc2N1C(=O)c1ccc2ccccc2n1 | 0.213 |
| COC(=O)[C@@]1(Cc2ccccc2)[C@H]2c3cc(C(=O)N4CCCC4)n(CCc4ccccn4)c3C[C@H]2CN1C(=O)c1ccccc1 | 0.487 |
| CCCCC[C@H]1OC[C@@]23C=C(Br)[C@@H](CC12)[C@@]1(CO1)C3=O (some centres undefined) | 0.878 |
| NC(=O)NCC#Cc1ccc2c(c1)[C@]1(C(=O)N2)[C@H](c2ccccc2OCCO)N2[C@H](c3ccccc3)[C@H](c3ccccc3)OC(=O)[C@H]2[C@@H]1C(=O)NC[C@H](O)c1ccccc1 | 1.37 |
| CC(C)N1CC=CC23O[C@@H]4C=CCCOC(=O)C4[C@H]2C(=O)N(CCCO)[C@@H]3C1=O (some centres undefined) | -0.0962 |
| CCCCCN1CC=CC23O[C@@H]4/C=C\CCC(C)OC(=O)C4[C@H]2C(=O)N(C(CO)C(C)C)[C@@H]3C1=O (some centres undefined) | -0.456 |
| COC(=O)C1(CC(C)C)C=C2C(=C(c3ccccc3)C(=O)C2C)CN1 (centres undefined) | 0.442 |
| CC(C)N1C(=O)C[C@@](C(=O)O)(c2ccc([N+](=O)[O-])cc2)[C@H]1c1ccc(CO)cc1 | 0.208 |

Moving on to another molecule below.
Give a short answer stating reported composite z-score for [N-]=[N+]=Nc1ccccc1[C@H]1OC(c2ccc(OCCCO)cc2)=N[C@@]1(Cc1ccccc1)C(=O)NCCN1CCOCC1 .
0.584

* * *

Molecular target: Albumin (Bos taurus)
Assay: compounds binding labelled BSA control protein – biochemical, small-molecule microarray, Alexa647 label, 635/667 nm fluorescence, artefact control for SMM control protein annotation, profiling panel (AID 1118);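 further: score merges 667 nm emission intensity and signal-to-noise per printed compound spot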
Details: BSA-A647 binding, fluorescence 635 nm, higher = more signal
reported_endpoint: composite z-score
Numbers only.

Consider the following items and state reported composite z-score for each.
1. COC(=O)C1(CC(C)C)C=C2C(=C(c3ccccc3)C(=O)C2C)CN1 (stereo unspecified)
2. CC(C)C(CO)N1C(=O)[C@@H]2[C@H]3C(=O)OCC=C[C@H]3OC23C=CCN(c2ccc(Cl)cc2)C(=O)[C@@H]13 (stereo partly specified)
3. COCCOC(=O)N1C(=O)[C@@]2(c3cc(C#CCC(C(=O)OC)C(=O)OC)ccc31)[C@H](c1ccc(OCCO)cc1)N1[C@H](c3ccccc3)[C@H](c3ccccc3)OC(=O)[C@H]1[C@@H]2C(=O)N1CCc2cc(OC)c(OC)cc2C1

0.581
-1.26
0.688

* * *

Assay: plasmodial surface anion channel blockers, osmotic lysis – cell-based, P. falciparum Indochina, OD700, 1 h, primary screen (AID 1154)
Settings: P. falciparum Indochina infected RBC osmotic lysis, called active from +8 up or from −8 down
The source made the active and inactive calls.
Select the correct class. Options are active, inactive and nothing else.

| smiles_structure | discrete_label |
| --- | --- |
| C=CCN1C(=O)[C@]2(CCC(=O)OC(C)(C)C)N=C(c3ccc(OCCCO)cc3)O[C@@H]2c2ccccc21 | active |

Query: recorded result category for CC(C)N1C(=O)c2ccccc2[C@@H](C(=O)NCCN2CCOCC2)[C@@H]1c1ccc(CO)cc1 in this test
inactive

Query: recorded result category for O=C(NCc1ccc(F)cc1)[C@H]1C[C@H]2C(=O)NCC(=O)N2[C@H]1c1ccc(O)cc1 in this test
inactive

Query: recorded result category for CCOC(=O)C[C@H]1[C@H](OC(=O)c2ccc(C(=O)c3ccccc3)cc2)[C@@H](NC(=O)c2ccc(-c3ccccc3)cc2)c2cc(OCCCO)ccc2N1C(=O)Cc1ccc(OC)cc1 in this test
active

Query: recorded result category for CCCCC(=C=CC[C@H](O)c1ccc(OCCO)cc1)CCO in this test
active

Query: recorded result category for CC(C)[Si](C#CCCCC#N)(O[C@H](c1ccccc1)c1cn(Cc2ccccc2)nn1)C(C)C in this test
inactive

Query: recorded result category for COc1ccc(C#Cc2ccc3c(c2)[C@]2(C(=O)N3)[C@H](C(=O)O)[C@H]3C(=O)O[C@H](c4ccccc4)[C@H](c4ccccc4)N3[C@@H]2c2ccc(O)cc2)cc1 in this test
inactive
